B1: glmS ribozyme (parent)
chain: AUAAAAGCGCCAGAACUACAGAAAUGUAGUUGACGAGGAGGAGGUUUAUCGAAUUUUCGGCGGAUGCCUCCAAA

variants of: B1; experiment: self-cleavage kobs at 2500 uM GlcN6P; higher = faster cleavage; RNA array; conditions: with glucosamine-6-phosphate
Variants at the floor of the assay were thinned out.
The entries below are paired with their reported self-cleavage kobs at 2500 uM GlcN6P.

# example entries with known answers
sequence_data=AUAAAAGCGCCAGAACUACAGAAAUGUAGUUCACGAGGAGAAGGUUUAUCGCAUUUUCGGCGGAUGCCUCCAAA readout_label="self-cleavage kobs at 2500 uM GlcN6P" reported_measurement="< 1e-05 s⁻¹"
sequence_data=AUAAAAGAGCCAGAAUUACAGAAAUGUAGUUGACGCGGAGGUGGUUUAUCGAAUUUUCGGCGGAUGCCUCCAAA readout_label="self-cleavage kobs at 2500 uM GlcN6P" reported_measurement="< 1e-05 s⁻¹"
sequence_data=AUAAAAGCUCCAGAACUACAGAAAUGUAGUUCACGAGGAGGGGGGUUAUCGAAUUUUCGGCGGAUGCCUCCAAA readout_label="self-cleavage kobs at 2500 uM GlcN6P" reported_measurement="< 1e-05 s⁻¹"
sequence_data=AUAAAAGCGCCAGGACUACAGAAAUGUAGUUGACGAGGAUGAGGUUUAUCGAAUUUUGGACGGAUGCCUCCAAA readout_label="self-cleavage kobs at 2500 uM GlcN6P" reported_measurement="< 1e-05 s⁻¹"

Report self-cleavage kobs at 2500 uM GlcN6P, nothing else, for this variant: AUAAAAGCGCCAGAACUACAGAAAUGUAGUUGACGAGGAGCGGGUUUAUCGAAUAUUCGGCGGAUGCCUCCAAA
9.68e-05 s⁻¹

Report self-cleavage kobs at 2500 uM GlcN6P, nothing else, for this variant: AUAAAAGCGCAAGAACUACAGAAAUGUAGUUGACGAGGAGGAGGUUUAUCGAAUUUUCGGCGGAUGUCUCCAAA
3.53e-05 s⁻¹

Report self-cleavage kobs at 2500 uM GlcN6P, nothing else, for this variant: AUAAAAGCUCCAGAACUACAGAAAUGUAGUUGACAAGGAGGAGUUUUAUCGACUUUUCGGCGGAUGCCUCGAAA
< 1e-05 s⁻¹

Report self-cleavage kobs at 2500 uM GlcN6P, nothing else, for this variant: AUAAAAGCGCCAGACCUACAGAAAUGUAGUUGCCGAGGAGGAGGUUUAUCGAAUUUUCGGUGGAUACCUCCAAA
< 1e-05 s⁻¹

Report self-cleavage kobs at 2500 uM GlcN6P, nothing else, for this variant: AUAAAAGCGCCAGAACUACAGAAAUGUAGUAGACGUGGAGGAGGUUUAUCGAAUUUUCGGCGGAUGCCUCCAAA
< 1e-05 s⁻¹

Report self-cleavage kobs at 2500 uM GlcN6P, nothing else, for this variant: AUAAAAGCUCCAGAAGUACAGAAAUGUAGUUGACGAGGAGGAGGUUUAUCGAAUUUUCGGCGGAUGCCUCUAAA
< 1e-05 s⁻¹

Report self-cleavage kobs at 2500 uM GlcN6P, nothing else, for this variant: AUAAAAGCGCCAGAGCUACAGAAAUGUAGUUGACGAGGAGGUGGUUUAUCGAAUUUUCGGCGGAUGCCUCCAAA
0.000216 s⁻¹
